# log10 OD450 values compiled below
- target of assay: T1, recombinant His-tagged Der p1 (dust mite, UniProt P08176 99-320, limits assumed)
- T1 construct: Recombinant His-tagged protein made by the applicant; also called Der p1-His; Der pl; not shown: His tag
- T1 sequence (looked up): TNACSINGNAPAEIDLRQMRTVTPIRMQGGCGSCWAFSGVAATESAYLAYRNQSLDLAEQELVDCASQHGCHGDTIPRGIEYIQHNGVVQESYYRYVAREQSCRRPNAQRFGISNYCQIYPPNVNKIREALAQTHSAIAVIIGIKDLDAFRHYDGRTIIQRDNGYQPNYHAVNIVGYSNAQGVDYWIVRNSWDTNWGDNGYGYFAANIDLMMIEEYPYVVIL
- protocol summary: ELISA, Der p1 on plate, biotinylated peptide at 1.111, duplicate 2
No end group written: not given here.
observation type: log10 OD450 (log10 of the value in OD450)

[
  {
    "binder": "AVVSFYP (also: biotinylated, site not given here, 7-amino acid peptide from a phage display library) [SDAB22110-2-F1]",
    "observation type": "log10 OD450",
    "observed": -0.90
  },
  {
    "binder": "LTGYGMS (also: biotinylated, site not given here, 7-amino acid peptide from a phage display library) [SDAB22110-2-D9]",
    "observation type": "log10 OD450",
    "observed": -0.99
  },
  {
    "binder": "YPTWAYR (also: biotinylated, site not given here, 7-amino acid peptide from a phage display library) [SDAB22110-2-C3]",
    "observation type": "log10 OD450",
    "observed": -0.99
  },
  {
    "binder": "GIHMALM (also: biotinylated, site not given here, 7-amino acid peptide from a phage display library) [SDAB22110-2-B2]",
    "observation type": "log10 OD450",
    "observed": -1.05
  },
  {
    "binder": "VVAFGIS (also: biotinylated, site not given here, 7-amino acid peptide from a phage display library) [SDAB22110-2-G1]",
    "observation type": "log10 OD450",
    "observed": -0.96
  },
  {
    "binder": "HSGPECG (also: biotinylated, site not given here, 7-amino acid peptide from a phage display library) [SDAB22110-2-D3]",
    "observation type": "log10 OD450",
    "observed": 0.35
  }
]
